target: human Gal-3 (hGal-3) (Homo sapiens (Human), UniProt P17931)
Sequence (P17931 whole entry): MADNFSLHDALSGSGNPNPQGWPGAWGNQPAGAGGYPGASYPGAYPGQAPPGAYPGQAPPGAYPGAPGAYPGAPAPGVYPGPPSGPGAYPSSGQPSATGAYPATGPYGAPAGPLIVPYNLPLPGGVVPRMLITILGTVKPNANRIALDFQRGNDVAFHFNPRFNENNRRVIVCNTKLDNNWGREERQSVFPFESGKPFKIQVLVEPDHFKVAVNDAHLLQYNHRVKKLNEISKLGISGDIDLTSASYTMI
Hi! Could you tag entries with IC50 below 0.02 µM as true (1), and those at or above as false (0)? Much appreciated.

{"columns": ["COMPOUND", "CATEGORY LABEL"],
 "data": [
  ["O=C([C@@H]1O[C@H](CO)[C@H](O)[C@H](n2cc(-c3cc(F)c(Br)c(F)c3)nn2)[C@H]1O)N(Cc1ccccc1C(F)(F)F)[C@H]1CCCC[C@@H]1O [Example 69]", "false (0)"],
  ["O=C([C@@H]1O[C@H](CO)[C@H](O)[C@H](n2cc(-c3cc(F)c(F)c(F)c3)nn2)[C@H]1O)N(Cc1ccc(Cl)o1)[C@H]1CCCC[C@@H]1O [Example 17]", "false (0)"]
]}

input: Check if IC50 falls below 0.02 µM for CO[C@@H]1[C@@H](n2cc(-c3cc(F)c(Br)c(F)c3)nn2)[C@@H](O)[C@@H](CO)O[C@H]1C(=O)N(c1cc(Cl)cc(Cl)c1)[C@H]1CCCC[C@@H]1O [Example 151] .
output: false (0)

input: Check if IC50 falls below 0.02 µM for CO[C@@H]1[C@@H](n2cc(-c3cc(F)c(F)c(F)c3)nn2)[C@@H](O)[C@@H](CO)O[C@H]1C(=O)N(c1cc(Cl)cc(Br)c1)[C@H]1CCCC[C@@H]1O [Example 96] .
output: true (1)

input: Check if IC50 falls below 0.02 µM for CC(=O)O[C@@H]1[C@@H](n2cc(-c3cc(F)c(F)c(F)c3)nn2)[C@@H](O)[C@@H](CO)O[C@H]1C(=O)N(Cc1ccnn1C)[C@H]1CCCC[C@@H]1O [Example 43] .
output: false (0)

input: Check if IC50 falls below 0.02 µM for CO[C@@H]1[C@@H](n2cc(-c3cc(F)c(F)c(F)c3)nn2)[C@@H](O)[C@@H](CO)O[C@H]1C(=O)N(c1ccc(F)c(Br)c1)[C@H]1CCCC[C@@H]1O [Example 92] .
output: true (1)

input: Check if IC50 falls below 0.02 µM for CO[C@@H]1[C@@H](n2cc(-c3cc(F)c(C)c(F)c3)nn2)[C@@H](O)[C@@H](CO)O[C@H]1C(=O)N(c1cc(Cl)cc(Cl)c1)[C@H]1CCCC[C@@H]1O [Example 158] .
output: true (1)

input: Check if IC50 falls below 0.02 µM for CO[C@@H]1[C@@H](n2cc(-c3cc(F)c(F)c(F)c3)nn2)[C@@H](O)[C@@H](CO)O[C@H]1C(=O)N(Cc1ccccc1Cl)[C@H]1CCCC[C@@H]1O [Example 12] .
output: false (0)

input: Check if IC50 falls below 0.02 µM for CO[C@@H]1[C@@H](n2cc(-c3cc(F)c(F)c(F)c3)nn2)[C@@H](O)[C@@H](CO)O[C@H]1C(=O)N(Cc1ccnn1C(C)C)[C@H]1CCCC[C@@H]1O [Example 45] .
output: false (0)

input: Check if IC50 falls below 0.02 µM for COc1cc(C#N)cc(N(C(=O)[C@@H]2O[C@H](CO)[C@H](O)[C@H](n3cc(-c4cc(F)c(F)c(F)c4)nn3)[C@H]2OC)[C@H]2CCCC[C@@H]2O)c1 [Example 108] .
output: false (0)

input: Check if IC50 falls below 0.02 µM for CO[C@@H]1[C@@H](n2cc(-c3cc(F)c(F)c(F)c3)nn2)[C@@H](O)[C@@H](CO)O[C@H]1C(=O)N(c1cc(Cl)cc(Cl)c1)[C@H]1CCCC[C@@H]1O [Example 60] .
output: true (1)
